The reported measurements were obtained from patent US20250304594A1.

experiment: Compound exposure in wild-type mice (brain and blood levels); assay type: in vivo, C57BL/6J male mice; conditions: male, C57BL/6J, mouse, brain (cerebellum) / blood, ip, Table 9; mice, i.p., one hour after administration; read-out: Brain:blood ratio
quantity.name: Kp at 1 h
Give bare numbers.

[
  {
    "compound": "COC(=O)C1=C(CF)NC2=C(C(=O)OC2)[C@H]1c1cc(F)cc(F)c1[C@H](C)F (single isomer, unassigned)",
    "Kp at 1 h": 3.3
  }
]

Batch of 6 compounds: report Kp at 1 h for each.
1. COC(=O)C1=C(CF)NC2=C(C(=O)OC2)[C@H]1c1cccc(F)c1[C@@H](C)F (single isomer, unassigned)
2. COC(=O)C1=C(CF)NC2=C(C(=O)OC2)[C@H]1c1cccc(F)c1CC(F)F (single isomer, unassigned)
3. COC(=O)C1=C(CF)NC2=C(C(=O)CC2)[C@H]1c1cccc(F)c1C1CC1 (single isomer, unassigned)
4. COC(=O)C1=C(CF)NC2=C(C(=O)OC2)[C@H]1c1cccc(F)c1C(F)(F)F (single isomer, unassigned)
5. COC(=O)C1=C(CF)NC2=C(C(=O)OC2)[C@H]1c1cc(F)cc(F)c1C(F)F (single isomer, unassigned)
6. COC(=O)C1=C(CF)NC2=C(C(=O)OC2)[C@H]1c1cc(F)cc(F)c1[C@H](F)CF (single isomer, unassigned)

-- reply
[3.5, 1.1, 1.1, 2.1, 1, 3.2]

Quick one: give me Kp at 1 h for each item below, same order please.
1. COC(=O)C1=C(CF)NC2=C(C(=O)OC2)[C@H]1c1cc(F)ccc1C(F)(F)F (single isomer, unassigned)
2. COC(=O)C1=C(CF)NC2=C(C(=O)OC2)[C@H]1c1ccccc1OC(F)F (single isomer, unassigned)

-- reply
[1.2, 1.5]

-- ask Let me know recorded Kp at 1 h for COC(=O)C1=C(CF)NC2=C(C(=O)OC2)[C@H]1c1cccc(F)c1C1CC1 (single isomer, unassigned) , thanks.
-- reply 1.5
